Consider the following binders and their measured Kd readings.
- Study target: mPrP immobilized on the SPR sensor chip (rmPrP) (Mus musculus, UniProt P04925)
- Sequence (P04925 23-230): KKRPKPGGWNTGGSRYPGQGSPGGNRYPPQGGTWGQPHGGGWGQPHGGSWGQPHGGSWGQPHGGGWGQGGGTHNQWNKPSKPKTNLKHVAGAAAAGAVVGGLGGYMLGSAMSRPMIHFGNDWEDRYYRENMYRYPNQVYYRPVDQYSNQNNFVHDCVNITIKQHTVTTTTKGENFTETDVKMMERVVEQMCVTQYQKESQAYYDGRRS
- Procedure details: SPR
- Study conditions: both partners purified
Reply with just the number (in µM).

{"Binder": "POM1 scFv pomolog hcD52A (scFv, V domains shown) VH: QVQLQQSGTELVMPGASVKMSCKASGYTFTDYWMHWVKQRPGQGLEWIGSIAPSDSYTSHNEKFKGKATLTVDESSSTAYMQLSSLTSEDSAVYFCSRSGYGYYAMEYWGQGTSVTVSS VL: DIVLTQSPAILSVSPGERVSFSCRASQNIGTSIHWYQQRTNESPRLIIKYASESISGIPSRFSGSGSGTDFTLSINSVESEDIADYYCQQSNTWPYTFGGGTKLELK", "Kd / µM": 0.103}
{"Binder": "POM1 scFv pomolog lcS32A (scFv, V domains shown) VH: QVQLQQSGTELVMPGASVKMSCKASGYTFTDYWMHWVKQRPGQGLEWIGSIDPSDSYTSHNEKFKGKATLTVDESSSTAYMQLSSLTSEDSAVYFCSRSGYGYYAMEYWGQGTSVTVSS VL: DIVLTQSPAILSVSPGERVSFSCRASQNIGTAIHWYQQRTNESPRLIIKYASESISGIPSRFSGSGSGTDFTLSINSVESEDIADYYCQQSNTWPYTFGGGTKLELK", "Kd / µM": 0.00998}
{"Binder": "POM1 scFv pomolog hcY57A (scFv, V domains shown) VH: QVQLQQSGTELVMPGASVKMSCKASGYTFTDYWMHWVKQRPGQGLEWIGSIDPSDSATSHNEKFKGKATLTVDESSSTAYMQLSSLTSEDSAVYFCSRSGYGYYAMEYWGQGTSVTVSS VL: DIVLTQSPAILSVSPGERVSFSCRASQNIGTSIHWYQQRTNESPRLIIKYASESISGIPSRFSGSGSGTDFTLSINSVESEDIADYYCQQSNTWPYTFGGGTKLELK", "Kd / µM": 0.406}
{"Binder": "POM1 scFv pomolog lcW94A (scFv, V domains shown) VH: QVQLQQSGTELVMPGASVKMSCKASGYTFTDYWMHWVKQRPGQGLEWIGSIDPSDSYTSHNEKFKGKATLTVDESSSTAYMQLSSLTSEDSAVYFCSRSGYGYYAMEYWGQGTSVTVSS VL: DIVLTQSPAILSVSPGERVSFSCRASQNIGTSIHWYQQRTNESPRLIIKYASESISGIPSRFSGSGSGTDFTLSINSVESEDIADYYCQQSNTAPYTFGGGTKLELK", "Kd / µM": 0.201}
{"Binder": "POM1 scFv pomolog lcY50A (scFv, V domains shown) VH: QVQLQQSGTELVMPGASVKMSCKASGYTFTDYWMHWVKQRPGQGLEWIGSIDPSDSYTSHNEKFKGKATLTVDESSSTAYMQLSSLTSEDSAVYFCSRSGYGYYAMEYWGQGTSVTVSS VL: DIVLTQSPAILSVSPGERVSFSCRASQNIGTSIHWYQQRTNESPRLIIKAASESISGIPSRFSGSGSGTDFTLSINSVESEDIADYYCQQSNTWPYTFGGGTKLELK", "Kd / µM": 0.313}
{"Binder": "POM1 scFv pomolog hcD55A (scFv, V domains shown) VH: QVQLQQSGTELVMPGASVKMSCKASGYTFTDYWMHWVKQRPGQGLEWIGSIDPSASYTSHNEKFKGKATLTVDESSSTAYMQLSSLTSEDSAVYFCSRSGYGYYAMEYWGQGTSVTVSS VL: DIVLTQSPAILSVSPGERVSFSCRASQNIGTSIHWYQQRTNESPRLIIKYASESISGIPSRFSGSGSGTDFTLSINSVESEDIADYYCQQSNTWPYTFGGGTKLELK", "Kd / µM": 0.372}
{"Binder": "POM1 scFv pomolog lcS91A (scFv, V domains shown) VH: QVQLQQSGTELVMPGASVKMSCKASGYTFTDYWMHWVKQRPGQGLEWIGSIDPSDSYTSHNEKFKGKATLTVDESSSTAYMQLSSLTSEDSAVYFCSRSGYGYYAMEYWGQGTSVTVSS VL: DIVLTQSPAILSVSPGERVSFSCRASQNIGTSIHWYQQRTNESPRLIIKYASESISGIPSRFSGSGSGTDFTLSINSVESEDIADYYCQQANTWPYTFGGGTKLELK", "Kd / µM": 1.43}

Ask: Give me measured Kd, please, for this binder: POM1 scFv pomolog hcY104A (scFv, V domains shown) VH: QVQLQQSGTELVMPGASVKMSCKASGYTFTDYWMHWVKQRPGQGLEWIGSIDPSDSYTSHNEKFKGKATLTVDESSSTAYMQLSSLTSEDSAVYFCSRSGYGYAAMEYWGQGTSVTVSS VL: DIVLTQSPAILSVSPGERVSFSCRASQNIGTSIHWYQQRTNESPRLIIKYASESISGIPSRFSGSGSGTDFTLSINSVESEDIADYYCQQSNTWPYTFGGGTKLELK
Result: 0.00879
